target: JAK1 kinase domain (Homo sapiens (Human)); test: Biochemical assay for inhibitors of JAK kinase activity, JAK1; conditions: preactivated JAK1 kinase domain 2.5 nM, 100 μM ATP
Please respond with reported IC50 for every item in the list.

Challenge: Entry under review: "CCc1ccc(Cl)cc1-n1cc(-c2cc(N)ncn2)cc1C#N" . Reported IC50?
Response given: 869 nM

Challenge: Another molecule: "CCc1ccc(Cl)cc1-n1cc(-c2cc(NC)ncn2)cc1C(N)=O"
Response given: 93 nM

Challenge: Another molecule: "NC(=O)c1cc(-c2cc(N)ncn2)cn1-c1cc(C(F)(F)F)ccc1Cl"
Response given: 1080 nM

Challenge: Another molecule: "Cc1ccc(Cl)cc1-n1cc(-c2cc(N)ncn2)cc1C(N)=O"
Response given: 595 nM

Challenge: Another molecule: "CNc1cc(-c2cc(C(N)=O)c(-c3cc(C(F)(F)F)ccc3Cl)[nH]2)ncn1"
Response given: 104 nM

Challenge: Another molecule: "Cc1ccc(Cl)cc1-c1cn(-c2ncnc3[nH]ccc23)cc1C(N)=O"
Response given: 85 nM

Challenge: Another molecule: "CCc1ccc(Cl)cc1-c1[nH]c(-c2ncnc3[nH]ccc23)cc1C(N)=O"
Response given: 7 nM

Challenge: Another molecule: "CNC(=O)c1cc(-c2ncnc3[nH]ccc23)[nH]c1-c1cc(C(F)(F)F)ccc1C"
Response given: 63 nM

Challenge: Another molecule: "Cc1ccc(C(F)(F)F)cc1-c1[nH]c(-c2cc(N)ncn2)cc1C(N)=O"
Response given: 108 nM

----------
target: JAK1 kinase domain (Homo sapiens (Human), UniProt P23458); experiment: Biochemical assay for inhibitors of JAK kinase activity, JAK1; conditions: preactivated JAK1 kinase domain 2.5 nM, 100 μM ATP
Sequence (P23458 861-1152): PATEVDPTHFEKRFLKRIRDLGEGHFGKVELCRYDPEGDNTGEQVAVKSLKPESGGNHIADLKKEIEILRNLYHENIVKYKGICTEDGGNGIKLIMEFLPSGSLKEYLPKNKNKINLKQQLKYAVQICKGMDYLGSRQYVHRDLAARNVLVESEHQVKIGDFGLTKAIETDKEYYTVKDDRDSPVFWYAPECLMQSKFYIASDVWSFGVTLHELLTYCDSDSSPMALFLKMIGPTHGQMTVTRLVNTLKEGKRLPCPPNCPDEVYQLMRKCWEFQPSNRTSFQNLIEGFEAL
measurement_name: IC50 (nM)
Numeric answer only, unit nM assumed.

Challenge: Entry under review: "Cc1ccc(Cl)cc1-c1cc(-c2ncnc3[nH]ccc23)[nH]c1C(N)=O" . Reported IC50?
Response given: 33

Challenge: Another compound: "CCc1ccc(C(F)(F)F)cc1-n1cc(-c2cc(N)ncn2)cc1C(N)=O"
Response given: 53

Challenge: Another compound: "CCc1ccc(Cl)cc1-n1cc(-c2ncnc3[nH]ccc23)cc1C#N"
Response given: 14

Challenge: Another compound: "CCc1ccc(Cl)cc1-c1[nH]c(-c2cc(N)ncn2)cc1C#N"
Response given: 141

Challenge: Another compound: "CCc1ccc(C(F)(F)F)cc1-c1[nH]c(-c2ncnc3[nH]ccc23)cc1C(N)=O"
Response given: 19

----------
biological target: TYK2 kinase domain (Homo sapiens (Human), UniProt P29597)
Sequence (P29597 833-1187): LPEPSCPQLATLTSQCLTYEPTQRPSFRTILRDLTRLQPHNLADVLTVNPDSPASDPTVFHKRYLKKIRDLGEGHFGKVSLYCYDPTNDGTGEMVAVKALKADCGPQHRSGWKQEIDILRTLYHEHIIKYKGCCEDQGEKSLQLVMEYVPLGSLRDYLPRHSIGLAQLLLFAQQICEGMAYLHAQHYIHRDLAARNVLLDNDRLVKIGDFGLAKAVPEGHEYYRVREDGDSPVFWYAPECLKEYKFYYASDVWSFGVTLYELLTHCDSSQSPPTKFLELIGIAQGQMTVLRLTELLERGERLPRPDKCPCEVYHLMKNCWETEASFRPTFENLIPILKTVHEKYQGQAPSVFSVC
measurement_name: pIC50
In simple prose, pIC50 is minus the logarithm base ten of a concentration in moles per litre.

Challenge: Entry under review: "CCc1ccc(Cl)cc1-c1[nH]c(-c2ncnc3[nH]ccc23)cc1C(N)=O" . Reported pIC50?
Response given: 8.52

Challenge: Another molecule: "CCc1ccc(Cl)cc1-c1[nH]c(-c2cc(NC)ncn2)cc1C(N)=O"
Response given: 7.64

Challenge: Another molecule: "N#Cc1cc(-c2ncnc3[nH]ccc23)cn1-c1cc(C(F)(F)F)ccc1Cl"
Response given: 7.42

Challenge: Another molecule: "CNC(=O)c1[nH]c(-c2ncnc3[nH]ccc23)cc1-c1cc(Cl)ccc1C"
Response given: 7.15

Challenge: Another molecule: "Cc1ccc(Cl)cc1-c1[nH]c(-c2ccnc3[nH]ccc23)cc1C(N)=O"
Response given: 7.29

Challenge: Another molecule: "Cc1ccc(Cl)cc1-n1cc(-c2ncnn3cccc23)cc1C(N)=O"
Response given: 6.91

Challenge: Another molecule: "CCc1ccc(Cl)cc1-c1cc(-c2ncnc3[nH]ccc23)[nH]c1C(=O)NC"
Response given: 8.15

Challenge: Another molecule: "Cc1ccc(Cl)cc1-n1cc(-c2ncnc3[nH]ccc23)cc1C#N"
Response given: 7.89

Challenge: Another molecule: "Cc1ccc(Cl)cc1-n1cc(-c2ncnc3c2CCN3)cc1C(N)=O"
Response given: 8.10

Challenge: Another molecule: "CCc1ccc(Cl)cc1-n1cc(-c2cc(NC)ncn2)cc1C(N)=O"
Response given: 7.32

Challenge: Another molecule: "CNc1cc(-c2cc(C(N)=O)c(-c3cc(Cl)ccc3C)[nH]2)ncn1"
Response given: 7.03

Challenge: Another molecule: "CCc1ccc(C(F)(F)F)cc1-c1[nH]c(-c2cc(N)ncn2)cc1C(=O)NC"
Response given: 7.42

Challenge: Another molecule: "CCc1ccc(C(F)(F)F)cc1-n1cc(-c2cc(N)ncn2)cc1C(N)=O"
Response given: 7.51

Challenge: Another molecule: "CCc1ccc(C(F)(F)F)cc1-c1[nH]c(-c2cc(NC)ncn2)cc1C(N)=O"
Response given: 7.34

Challenge: Another molecule: "CCc1ccc(C(F)(F)F)cc1-c1[nH]c(-c2cc(N)ncn2)cc1C(N)=O"
Response given: 7.27

Just for reference, patent US9688661B2 is where these values come from.
